Test: NCI Yeast Anticancer Drug Screen. Data for the sgs1 mgt1 strain (AID 161);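 further: 0% = growth of cultures given vehicle only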
Settings: S. cerevisiae sgs1 mgt1 strain, at 50.0 µM, hits give high values
About 79,000 compounds went through this panel and 15% of them were active in at least one assay; those are over-represented in the sample as a whole.
TEST_READOUT: growth inhibition (%)
The figure you give is taken to be in %; do not add the unit.

COMPOUND | TEST_READOUT | VAL
COC(=O)N/N=C/c1ccc(C)cc1 | growth inhibition | -10
O=C(C[n+]1ccccc1CCCO)c1ccc(F)cc1 | growth inhibition | 4.6
CC(C)NS(=O)(=O)c1ccccc1 | growth inhibition | 10.6
COC1=CC(=O)C(Cc2ccc3c(c2)OCO3)=CC1=O | growth inhibition | 15.7
O=C(C[n+]1cccc(CO)c1)c1ccc(-c2ccc(C(=O)C[n+]3cccc(CO)c3)cc2)cc1 | growth inhibition | 31.7

[in] So what's the measured growth inhibition for this one? `Cc1ccc(O)c(Cc2cc(C)cc(Cc3cc(C)ccc3O)c2O)c1`
[out] 15.2

[in] Another compound to look at: `Cc1ccc(N(C)c2cc(=O)n(C)c(=O)[nH]2)cc1C`
[out] 10.3

[in] Another compound to look at: Cc1c(C2CCSc3ccccc3N2)sc2ccccc12 (stereo unspecified)
[out] 11.3

[in] Another compound to look at: `CCN(CC(=O)NC(=O)c1ccccc1)c1ccccc1`
[out] -4.75

[in] Another compound to look at: O=C(O)C1CC2C3CC(C(=O)O)C(C3)C2C1 (stereo unspecified)
[out] -5.55

[in] Another compound to look at: `COc1ccc(NC(=O)C(=O)Cc2nc3ccc(C(=O)c4ccccc4)cc3[nH]c2=O)c([N+](=O)[O-])c1`
[out] 12.7
